Target: UniProt:Q9WTR4
Assay: Inhibition of [3H]nisoxetine radioligand binding at the norepinephrine transporter
Settings: read-out: NEN IC50 for inhibition of radioligand binding; NEN=[3H] nisoxetine
From the text: Illustrative in vitro assays for binding are described in Boja et al Ann. NY Acad. Sci. 654:282-291 (1992), which is incorporated herein by reference in its entirety. […] Alternatively, the compounds may be analyzed by their ability to inhibit reuptake of a labelled neurotransmitter in a sample, in particular, in synaptosomes.
Where a name gives a salt, the structure may show the parent alone.
Experimental Endpoint: IC50 (nM)

1. CN1[C@H]2CC[C@@H]1[C@@H](c1ncc(-c3ccccc3)o1)[C@@H](c1ccc(Cl)cc1)C2 [RTI-4229-189, Tartrate] = 496
2. COC(=O)C1C2CCC(CC1c1ccc(C)cc1)N2 (stereo not drawn) [RTI-4229-305] = 21.8
3. Cc1ccc(C2CC3CCC(C2C(=O)OC2CC2)N3C)cc1 (stereo not drawn) [RTI-4229-193] = 544
4. CN1C2CCC1C(C(=O)N1CCCC1)C(c1ccc(Cl)cc1)C2 (stereo not drawn) [RTI-4229-147] = 3950
5. Cc1ccc(C2CC3CCC([C@H]2C(=O)OC2CCC2)N3C)cc1 (stereo partly drawn) [RTI-4229-150] = 4740
6. CN1C2CCC1C(COC(=O)c1ccccc1)C(c1ccc(Cl)cc1)C2 (stereo not drawn) [RTI-4229-123] = 393
7. Cc1ccc(C2CC3CCC(C2C(=O)Oc2ccccc2)N3C)cc1 (stereo not drawn) [RTI-4229-120] = 5830
8. COC(=O)C1C2CCC(CC1c1ccc(C)c(I)c1)N2 (stereo not drawn) [RTI-4229-279] = 74.3
9. CN1C2CCC1C(C(=O)OC1CC1)C(c1ccc(I)cc1)C2 (stereo not drawn) [RTI-4229-191] = 102
